Target: AChE (Homo sapiens)
Sequence (P22303 32-614, species assumed): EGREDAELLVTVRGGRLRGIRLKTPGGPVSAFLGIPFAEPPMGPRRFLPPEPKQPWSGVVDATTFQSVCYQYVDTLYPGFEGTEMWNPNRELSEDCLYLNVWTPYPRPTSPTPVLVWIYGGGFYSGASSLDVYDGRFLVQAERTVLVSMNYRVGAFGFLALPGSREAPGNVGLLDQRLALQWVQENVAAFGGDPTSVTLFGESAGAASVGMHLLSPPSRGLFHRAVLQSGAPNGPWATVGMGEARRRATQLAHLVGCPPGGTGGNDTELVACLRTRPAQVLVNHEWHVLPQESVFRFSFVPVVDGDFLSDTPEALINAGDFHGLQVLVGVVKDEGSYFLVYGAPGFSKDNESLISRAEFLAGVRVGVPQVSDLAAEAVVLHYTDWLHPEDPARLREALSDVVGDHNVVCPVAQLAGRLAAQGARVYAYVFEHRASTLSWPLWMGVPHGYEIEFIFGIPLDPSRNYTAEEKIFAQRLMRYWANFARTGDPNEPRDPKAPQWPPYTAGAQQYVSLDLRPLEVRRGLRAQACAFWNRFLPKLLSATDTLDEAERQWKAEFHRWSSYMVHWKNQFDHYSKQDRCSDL
measured.endpoint: Ki (nM)
The response must be a number in nM with no trailing unit.

# return recorded Ki for entry O=c1ccc2ccc(OCCCCCOc3cccc4cccnc34)cc2o1
1320

---

Target: UniProt:P22303
Catalogue of pIC50 values
Please treat pIC50 as minus the base-10 logarithm of the molar concentration.

Report its pIC50 with UniProt:P22303 as the test system: CCOC(=O)c1cc2ccc(OCCCOc3cccc4cccnc34)cc2oc1=O
4.79

Report its pIC50 with UniProt:P22303 as the test system: O=c1ccc2ccc(OCCCCCSc3nc4ccccc4[nH]3)cc2o1
4.93

---
Report its pIC50 with UniProt:P22303 as the test system: CCOC(=O)c1cc2ccc(OCCCCCOc3cccc4cccnc34)cc2oc1=O
5.05

Report its pIC50 with UniProt:P22303 as the test system: O=c1cc(-c2ccccc2)c2ccc(NCCCSc3nc4ccccc4o3)cc2o1
4.89

Report its pIC50 with UniProt:P22303 as the test system: Cc1cc(=O)oc2cc(OCCCOc3cccc4cccnc34)ccc12
4.95

---

Target: butyrylcholinesterase (BuChE) (Homo sapiens)
Sequence (P06276 29-602): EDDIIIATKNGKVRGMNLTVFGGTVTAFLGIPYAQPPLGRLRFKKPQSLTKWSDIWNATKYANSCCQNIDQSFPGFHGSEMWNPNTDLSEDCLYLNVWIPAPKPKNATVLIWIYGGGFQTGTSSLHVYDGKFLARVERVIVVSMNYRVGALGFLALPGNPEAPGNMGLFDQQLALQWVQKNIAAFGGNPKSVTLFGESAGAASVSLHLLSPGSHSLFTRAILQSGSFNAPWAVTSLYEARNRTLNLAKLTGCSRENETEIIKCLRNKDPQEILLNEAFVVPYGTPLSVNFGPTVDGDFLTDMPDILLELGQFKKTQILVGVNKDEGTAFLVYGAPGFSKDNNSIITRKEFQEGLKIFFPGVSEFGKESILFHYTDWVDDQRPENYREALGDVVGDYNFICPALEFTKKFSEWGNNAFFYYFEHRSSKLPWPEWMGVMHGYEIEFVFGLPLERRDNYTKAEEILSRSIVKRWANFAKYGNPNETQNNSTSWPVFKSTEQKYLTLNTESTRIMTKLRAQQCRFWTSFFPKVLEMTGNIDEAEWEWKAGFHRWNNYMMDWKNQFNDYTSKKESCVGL
Test: BuChE inhibition by Ellman's method
Assay type: biochemical
Details: read-out: BuChE % inhibition
measured.endpoint: inhibition at 35 µM (%)
The response must be a number in % with no trailing unit.

Examples from the recorded data:
# return recorded inhibition at 35 µM for entry O=c1ccc2ccc(OCCCCCSc3nc4ccccc4o3)cc2o1
14

# return recorded inhibition at 35 µM for entry O=c1ccc2ccc(OCCCCCSc3nc4ccccc4[nH]3)cc2o1
38

# return recorded inhibition at 35 µM for entry Cc1cc(=O)oc2cc(OCCCSc3nc4ccccc4o3)ccc12
11

# return recorded inhibition at 35 µM for entry O=C(O)c1cc2ccc(OCCCOc3cccc4cccnc34)cc2oc1=O
2

# return recorded inhibition at 35 µM for entry CCOC(=O)c1cc2ccc(OCCCOc3cccc4cccnc34)cc2oc1=O
46

# return recorded inhibition at 35 µM for entry O=c1cc(-c2ccccc2)c2ccc(NCCCSc3nc4ccccc4o3)cc2o1
26

# return recorded inhibition at 35 µM for entry CCOC(=O)c1cc2ccc(OCCCCCOc3cccc4cccnc34)cc2oc1=O
29.2

# return recorded inhibition at 35 µM for entry O=c1cc(-c2ccccc2)c2ccc(NCCCOc3cccc4cccnc34)cc2o1
37

Then this compound:
# return recorded inhibition at 35 µM for entry Cc1cc(=O)oc2cc(OCCCCCOc3cccc4cccnc34)ccc12
34.6

---

Target: acetylcholinesterase (AChE) (Homo sapiens)
Catalogue of IC50 values
The response must be a number in µM with no trailing unit.

Report its IC50 with acetylcholinesterase (AChE) (Homo sapiens) as the test system: Cc1cc(=O)oc2cc(OCCCCCOc3cccc4cccnc34)ccc12 [Compound 3d]
14

Report its IC50 with acetylcholinesterase (AChE) (Homo sapiens) as the test system: O=c1cc(-c2ccccc2)c2ccc(NCCCOc3cccc4cccnc34)cc2o1 [Compound 3h]
30.2

Report its IC50 with acetylcholinesterase (AChE) (Homo sapiens) as the test system: O=c1ccc2ccc(OCCCCCOc3cccc4cccnc34)cc2o1 [Compound 3b]
8.8

---
Report its IC50 with acetylcholinesterase (AChE) (Homo sapiens) as the test system: O=c1ccc2ccc(OCCCCCSc3nc4ccccc4o3)cc2o1 [Compound 3j]
25.4

---

Below are IC50 values recorded for butyrylcholinesterase (BuChE) (Homo sapiens, UniProt P06276).
The response must be a number in µM with no trailing unit.

# return recorded IC50 for entry O=c1ccc2ccc(OCCCCCOc3cccc4cccnc34)cc2o1
26.5

# return recorded IC50 for entry O=c1ccc2ccc(OCCCCOc3cccc4cccnc34)cc2o1
28.3

# return recorded IC50 for entry Cc1cc(=O)oc2cc(OCCCOc3cccc4cccnc34)ccc12
32.4

Recorded values, source paper PMC5569448.
